Target or test system: human A2A receptor (A2AR) (Homo sapiens, UniProt P29274)
Sequence (P29274 whole entry): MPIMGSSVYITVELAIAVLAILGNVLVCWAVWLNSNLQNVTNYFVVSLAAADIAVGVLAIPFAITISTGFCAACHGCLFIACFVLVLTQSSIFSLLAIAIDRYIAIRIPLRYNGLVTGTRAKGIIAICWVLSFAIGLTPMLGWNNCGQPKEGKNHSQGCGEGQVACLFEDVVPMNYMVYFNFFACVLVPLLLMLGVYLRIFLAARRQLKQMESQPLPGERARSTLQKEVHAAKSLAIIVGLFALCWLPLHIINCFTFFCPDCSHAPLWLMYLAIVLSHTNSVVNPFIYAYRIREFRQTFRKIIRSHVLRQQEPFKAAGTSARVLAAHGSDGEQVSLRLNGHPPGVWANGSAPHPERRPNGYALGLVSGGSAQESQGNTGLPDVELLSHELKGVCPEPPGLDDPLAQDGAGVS
Assay info: Luciferase reporter assay (HEK293-A2AR-luc2p/CRE/Hygro cells, 3 nM CGS21680)
Conditions used: 3 nM CGS21680, 5 h incubation
Endpoint label: IC50 (nM)

> print(dat)
                                    molecule  readout.qualifier  test.value
 1  CC(C)CC(C(=O)N1CCN(c2ccc(F)cc2F)CC1)n1ncc2c1nc(N)n1nc(-c3ccco3)nc21 (single isomer, unassigned) [Compound A22b]                  =         0.6
 2  CC(C(=O)N1CCN(c2ccc(F)cc2)CC1)(c1ccccc1)n1ncc2c1nc(N)n1nc(-c3ccco3)nc21 (centres unmarked) [Compound A70]                  =           5
 3  COc1ccc(N2CCN(C(=O)C(C)(c3ccccc3)n3ncc4c3nc(N)n3nc(-c5ccco5)nc43)CC2)c(OC)c1 (centres unmarked) [Compound A105]                  =        10.3
 4  COCCOc1ccc(N2CCN(C(=O)C(c3ccccc3)n3ncc4c3nc(N)n3nc(-c5ccco5)nc43)[C@H](C)C2)cc1 (some centres unmarked) [Compound A50]                  =         1.5
 5  Nc1nc2c(cnn2C(C(=O)N2CCN(c3ccc(F)cc3F)CC2)c2ccccc2)c2nc(-c3ccco3)nn12 (centres unmarked) [Compound A48]                  =         1.6
 6  CCCCC(C(=O)N1CCN(c2ccc(OCCOCCOC)cc2)CC1)n1cc2c(nc(N)n3nc(-c4ccco4)nc23)n1 (centres unmarked) [Compound C11]                  =         118
 7  CO[C@@H]1CCCN(C(=O)C(C)(c2ccccc2)n2ncc3c2nc(N)n2nc(-c4ccco4)nc32)C1 (some centres unmarked) [Compound B31]                  =          46
 8  COCCOc1ccc(N2CCN(C(=O)C(c3ccccc3)n3ncc4c3nc(N)n3nc(-c5ccco5)nc43)CC2)cc1F (centres unmarked) [Compound A55]                  =         2.3
 9  COCCOc1cc(F)c(N2CCN(C(=O)[C@](C)(c3ccccc3)n3ncc4c3nc(N)n3nc(-c5ccco5)nc43)CC2)cc1F [Compound A65a]                  =        21.4
10  COCCOc1ccc(N2CCN(C(=O)C(c3ccccc3OC)n3ncc4c3nc(N)n3nc(-c5ccco5)nc43)CC2)cc1 (single isomer, unassigned) [Compound A31a]                  =         8.1
11  CN1CCN(CCOc2ccc(N3CCN(C(=O)C(C)(c4ccccc4)n4ncc5c4nc(N)n4nc(-c6ccco6)nc54)CC3)cc2)CC1 (centres unmarked) [Compound A81]                  =         4.7
12  CCCC(C(=O)N1CCN(c2ccc(OCCOCCOC)cc2)CC1)n1cc2c(nc(N)n3nc(-c4ccco4)nc23)n1 (centres unmarked) [Compound C7]                  =         186
13  CCCC(C(=O)N1CCN(c2ccc(OCCOC)c(F)c2F)CC1)n1ncc2c1nc(N)n1nc(-c3ccco3)nc21 (centres unmarked) [Compound A51]                  =         4.8
14  CN1CCN(C(=O)C(C)(c2ccccc2)n2ncc3c2nc(N)n2nc(-c4ccco4)nc32)CC1 (centres unmarked) [Compound B27]                  =        30.3
15  C[C@](C(=O)N1CCN(c2ccc(OCCCN3CCOCC3)cc2)CC1)(c1ccccc1)n1ncc2c1nc(N)n1nc(-c3ccco3)nc21 [Compound A76b]                  =         3.9
16  COCCOc1ccc(N2CCN(C(=O)C(c3ccccc3)n3ncc4c3nc(N)n3nc(-c5ccco5)nc43)CC2)c(F)c1F (centres unmarked) [Compound A56]                  =         1.7
17  C[C@](C(=O)N1CCN(c2ccc(OCCCN3CCCC3)cc2)CC1)(c1ccccc1)n1ncc2c1nc(N)n1nc(-c3ccco3)nc21 [Compound A79b]                  =         6.8
18  COCCOc1ccc(N2CCN(C(=O)C(C)n3cc4c(nc(N)n5nc(-c6ccco6)nc45)n3)CC2)cc1 (single isomer, unassigned) [Compound C1b]                  =        12.7
19  COCCOc1ccc(N2CCN(C(=O)C(C3CCN(C)CC3)n3ncc4c3nc(N)n3nc(-c5ccco5)nc43)CC2)cc1 (centres unmarked) [Compound A60]                  >       10000
20  CC(C(=O)N1CCN(c2ccc(F)cc2F)CC1)(c1ccccc1)n1ncc2c1nc(N)n1nc(-c3ccco3)nc21 (centres unmarked) [Compound A68]                  =         4.4
21  COCCOc1ccc(N2CCN(C(=O)C(c3ccccc3)n3ncc4c3nc(N)n3nc(-c5ccco5)nc43)CC2)cc1 (single isomer, unassigned) [Compound A13b]                  =         0.8
22  COCCOc1ccc(N2CCN(C(=O)[C@@](C)(c3ccccc3)n3ncc4c3nc(N)n3nc(-c5ccco5)nc43)CC2)cc1F [Compound A66b]                  =         3.3
23  COc1cccc(N2CCN(C(=O)C(C)(c3ccccc3)n3ncc4c3nc(N)n3nc(-c5ccco5)nc43)CC2)c1 (centres unmarked) [Compound A77]                  =         4.2
24  COCCOc1ccc(N2CCN(C(=O)C(C)(c3ccccc3)n3ncc4c3nc(N)n3nc(-c5ccco5)nc43)CC2)c(F)c1 (centres unmarked) [Compound A64]                  =         4.8
25  COCCOCCOc1ccc(N2CCN(C(=O)C(COC)n3ncc4c3nc(N)n3nc(-c5ccco5)nc43)CC2)cc1 (centres unmarked) [Compound A27]                  =        39.4
26  CC(C(=O)N1CCC2(CC1)COC2)(c1ccccc1)n1ncc2c1nc(N)n1nc(-c3ccco3)nc21 (centres unmarked) [Compound B34]                  =          14
